Consider the following compounds and their measured pIC50 readings.
# systemUnderTest: HCV NS3/4A protease complex (UniProt P27958, C1454S/C1711G, species not given)
# Construct: fused on or other part: Three-lysine solubilising tail at the C-terminus of NS4A
# experimentDescription: Recombinant HCV NS3/4A protease complex FRET peptide assay (strain not stated)
# Format: biochemical
# particulars: NS3/4A protease enzyme assay, read-out: Activity Range IC50
pIC50: −log10 of the molar value.
attributeMeasured: pIC50

1. C=CC1C[C@]1(NC(=O)[C@@H]1C[C@@H](Oc2nccc3cc(OC)ccc23)CN1C(=O)[C@@H](NC(=O)OC(C)(C)C)C(C)(C)C)C(=O)NS(=O)(=O)N(C)C(C)C (some centres unmarked) [Compound 21]    5.82 to 6.82
2. C=CC1C[C@]1(NC(=O)[C@@H]1C[C@@H](Oc2cc(-c3ccccc3)nc3cc(OC)ccc23)CN1C(=O)[C@@H](NC(=O)OC)C(C)(C)C)C(=O)NS(=O)(=O)N1CCN(C)CC1 (some centres unmarked) [Compound 13]    5.82 to 6.82
3. C=CC1C[C@]1(NC(=O)[C@@H]1C[C@@H](Oc2cc(-c3ccccc3)nc3cc(OC)ccc23)CN1C(=O)[C@@H](NC(=O)OC(C)(C)C)C(C)(C)C)C(=O)NS(=O)(=O)N(C)C (some centres unmarked) [Compound 15]    > 6.82
4. C=CC1C[C@]1(NC(=O)[C@@H]1C[C@@H](Oc2cc(-c3ccccc3)nc3cc(OC)ccc23)CN1C(=O)[C@@H](NC(=O)OC)C(C)(C)C)C(=O)NS(=O)(=O)N(C)C (some centres unmarked) [Compound 3]    > 6.82
5. C=CC1C[C@]1(NC(=O)[C@@H]1C[C@@H](Oc2nccc3ccccc23)CN1C(=O)[C@@H](NC(=O)OC(C)(C)C)C(C)(C)C)C(=O)NS(=O)(=O)N(C)C(C)C (some centres unmarked) [Compound 22]    5.82 to 6.82
6. C=CC1CC1(NC(=O)[C@@H]1C[C@@H](Oc2cc(-c3ccccc3)nc3cc(OC)ccc23)CN1C(=O)[C@@H](NC(=O)OC)C(C)(C)C)C(=O)NS(=O)(=O)N1CCCC1 (mixture of isomers) [Compound 8]    > 6.82
7. C=CC1C[C@]1(NC(=O)[C@@H]1C[C@@H](Oc2cc(-c3ccccc3)nc3cc(OC)ccc23)CN1C(=O)[C@@H](NC(=O)OC)C(C)(C)C)C(=O)NS(=O)(=O)N(C)c1ccccc1 (some centres unmarked) [Compound 5]    > 6.82
8. C=CC1C[C@]1(NC(=O)[C@@H]1C[C@@H](Oc2cc(-c3ccccc3)nc3cc(OC)ccc23)CN1C(=O)[C@@H](NC(=O)OC(C)(C)C)C(C)(C)C)C(=O)NS(=O)(=O)N(C)CC (some centres unmarked) [Compound 14]    > 6.82

* * *

# systemUnderTest: BMS strain of the NS3/4A protease complex (UniProt P27958, C1454S/C1711G, species not given/STRAIN_BMS)
# experimentDescription: Recombinant HCV NS3/4A protease complex FRET peptide assay, BMS strain
# Source text: The purpose of this in vitro assay was to measure the inhibition of HCV NS3 protease complexes, derived from the BMS strain, H77 strain or J416S strain, as described below, by compounds of the present invention. This assay provides an indication of how effective compounds of the present invention would be in inhibiting HCV proteolytic activity. Serum from an HCV-infected patient was obtained from Dr. T. Wright, San Francisco Hospital. […]
attributeMeasured: IC50

1) C=CC1C[C@]1(NC(=O)[C@@H]1C[C@@H](Oc2cc(-c3ccccc3)nc3cc(OC)ccc23)CN1C(=O)[C@@H](NC(=O)OC)C(C)(C)C)C(=O)NS(=O)(=O)N(C)Cc1ccccc1 (stereo partly shown) [Compound 9]    128 nM
